# system.under.test: Mitogen-activated protein kinase 1 (Homo sapiens) (UniProt P28482)
# Sequence (P28482 whole entry): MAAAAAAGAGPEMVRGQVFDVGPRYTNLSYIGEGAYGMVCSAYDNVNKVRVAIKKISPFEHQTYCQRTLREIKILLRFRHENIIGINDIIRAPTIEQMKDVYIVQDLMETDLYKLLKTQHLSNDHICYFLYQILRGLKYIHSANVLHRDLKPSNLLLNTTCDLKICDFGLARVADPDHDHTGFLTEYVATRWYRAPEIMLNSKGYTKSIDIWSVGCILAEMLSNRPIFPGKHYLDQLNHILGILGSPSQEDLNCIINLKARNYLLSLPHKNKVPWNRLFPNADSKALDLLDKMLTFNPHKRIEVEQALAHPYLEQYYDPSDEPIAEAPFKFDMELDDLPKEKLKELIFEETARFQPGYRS
# method: Inhibition of human Mitogen-activated protein kinase 2 at 30 uM
parameter: inhibition (%)

// below: answered compounds
compound="Cn1c(-c2ccc([S+](C)[O-])cc2)nc2c(Sc3ccc(F)cc3)ncnc21 (configuration not stated)" parameter=inhibition numeric_readout=0
compound=c1ccc(CSc2ncnc3[nH]cnc23)cc1 parameter=inhibition numeric_readout=12
compound=Cn1cnc2c(Sc3ccc(F)cc3)ncnc21 parameter=inhibition numeric_readout=12
compound=Nc1ncnc2c1ncn2Cc1ccccc1 parameter=inhibition numeric_readout=11
compound=c1ccc(-[n+]2c[nH]c3ncncc32)cc1 parameter=inhibition numeric_readout=0

I: Fc1ccc(CSc2[nH]cnc3ncnc2-3)cc1
II: Cn1c(-c2ccccc2)nc2c(-c3ccc(F)cc3)ncnc21
[ask] Sort I and II by inhibition descending and give the first. Refer to your chosen item by its label in the answer.
[reply] I
